Origin of measurements: patent US10584116B2

target: human TRPA1 (Homo sapiens (Human), UniProt O75762); assay: Measurement of TRPA1 antagonist activity (intracellular calcium increase induced by allylisothiocyanate in 293T cells transfected with human TRPA1); conditions: 293T cells expressing human TRPA1, allylisothiocyanate stimulation, FLIPR Calcium4 fluorescence; read-out: hTRPA1 IC50
Sequence (O75762 whole entry): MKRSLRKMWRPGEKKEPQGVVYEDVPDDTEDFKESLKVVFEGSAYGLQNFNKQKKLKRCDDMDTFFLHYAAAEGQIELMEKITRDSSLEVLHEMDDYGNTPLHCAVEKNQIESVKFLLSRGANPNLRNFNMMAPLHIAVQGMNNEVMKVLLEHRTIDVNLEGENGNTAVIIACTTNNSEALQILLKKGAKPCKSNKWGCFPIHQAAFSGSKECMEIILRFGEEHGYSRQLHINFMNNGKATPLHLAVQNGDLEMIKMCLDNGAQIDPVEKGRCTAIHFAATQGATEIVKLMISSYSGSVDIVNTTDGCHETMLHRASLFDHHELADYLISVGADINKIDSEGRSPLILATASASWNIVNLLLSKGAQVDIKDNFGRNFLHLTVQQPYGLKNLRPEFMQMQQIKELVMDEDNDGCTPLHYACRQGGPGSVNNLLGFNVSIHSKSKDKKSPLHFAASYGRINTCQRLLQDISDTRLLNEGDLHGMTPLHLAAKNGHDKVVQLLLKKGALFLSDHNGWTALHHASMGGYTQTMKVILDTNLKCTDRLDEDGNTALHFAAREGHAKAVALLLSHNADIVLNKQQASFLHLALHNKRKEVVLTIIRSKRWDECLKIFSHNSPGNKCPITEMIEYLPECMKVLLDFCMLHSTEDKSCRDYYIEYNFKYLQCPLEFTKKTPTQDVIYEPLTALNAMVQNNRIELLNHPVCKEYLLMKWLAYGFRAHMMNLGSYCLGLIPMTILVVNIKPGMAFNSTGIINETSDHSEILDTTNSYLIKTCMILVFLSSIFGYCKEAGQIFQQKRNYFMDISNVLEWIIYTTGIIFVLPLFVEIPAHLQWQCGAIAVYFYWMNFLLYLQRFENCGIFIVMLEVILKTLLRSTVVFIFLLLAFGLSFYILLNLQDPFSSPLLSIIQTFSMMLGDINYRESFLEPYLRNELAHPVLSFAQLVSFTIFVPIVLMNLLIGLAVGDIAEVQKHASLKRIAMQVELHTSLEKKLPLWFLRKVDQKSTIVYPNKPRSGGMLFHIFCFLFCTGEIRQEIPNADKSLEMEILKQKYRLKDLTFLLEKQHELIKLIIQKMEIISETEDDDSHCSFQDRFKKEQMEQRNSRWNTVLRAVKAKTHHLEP
pIC50: −log10 of the molar value.
Quick rule: pIC50 of at least 7 means Condition met, below that means Condition not met.

INPUT: In plain terms: is recorded pIC50 at least 7 for `CC(C)n1c(=O)c(CNC(=O)C2(NS(=O)(=O)c3cc4cc(F)ccc4o3)CC2)cn(-c2ccc(C(F)(F)F)cc2)c1=O` ?
OUTPUT: Condition not met

INPUT: In plain terms: is recorded pIC50 at least 7 for `CC(C)n1cc(CNC(=O)[C@@H]2CCCN2S(=O)(=O)c2cc3cc(F)ccc3o2)cc(-c2ccc(C(F)(F)F)nc2)c1=O` ?
OUTPUT: Condition met

INPUT: In plain terms: is recorded pIC50 at least 7 for `CC(C)n1c(=O)c(CNC(=O)[C@@H]2CCCN2S(=O)(=O)c2cc3cnccc3o2)cn(-c2ccc(C(F)(F)F)cc2)c1=O` ?
OUTPUT: Condition met

INPUT: In plain terms: is recorded pIC50 at least 7 for `CCn1c(=O)c(CNC(=O)[C@@H]2CCCN2S(=O)(=O)c2cc3ccccc3o2)cn(-c2ccc(C(F)(F)F)cc2)c1=O` ?
OUTPUT: Condition met

INPUT: In plain terms: is recorded pIC50 at least 7 for `CC(C)n1cc(CNC(=O)[C@@H]2CCCN2S(=O)(=O)c2cc3ccccc3o2)cc(-c2ccc(C(F)(F)F)nc2)c1=O` ?
OUTPUT: Condition not met

INPUT: In plain terms: is recorded pIC50 at least 7 for `CC(C)n1cc(CNC(=O)[C@@H]2CCCN2S(=O)(=O)c2cc3ccccc3o2)cc(-c2ccc(C(F)(F)F)cc2)c1=O` ?
OUTPUT: Condition met

INPUT: In plain terms: is recorded pIC50 at least 7 for `CC(C)n1c(=O)c(CNC(=O)[C@@H]2CCCN2S(=O)(=O)c2cc3cnccc3o2)cn(-c2ccc(C(F)(F)F)nc2)c1=O` ?
OUTPUT: Condition not met

INPUT: In plain terms: is recorded pIC50 at least 7 for `CC(C)n1c(=O)c(CNC(=O)[C@@H]2CCCN2S(=O)(=O)c2cc3ccccc3o2)cn(-c2ccc(C(F)(F)F)cc2)c1=O` ?
OUTPUT: Condition met

INPUT: In plain terms: is recorded pIC50 at least 7 for `CC(C)n1c(=O)c(CNC(=O)[C@@H]2CCCN2S(=O)(=O)c2cc3ccccc3s2)cn(-c2ccc(C(F)(F)F)cc2)c1=O` ?
OUTPUT: Condition met

INPUT: In plain terms: is recorded pIC50 at least 7 for `CC(C)n1c(=O)c(CNC(=O)[C@@H]2CCCN2S(=O)(=O)c2cc3ccccc3o2)cn(-c2ccc(C(F)(F)F)nc2)c1=O` ?
OUTPUT: Condition met

INPUT: In plain terms: is recorded pIC50 at least 7 for `CC(C)n1cc(-c2ccc(C(F)(F)F)nc2)cc(CNC(=O)[C@@H]2CCCN2S(=O)(=O)c2cc3ccccc3o2)c1=O` ?
OUTPUT: Condition not met

INPUT: In plain terms: is recorded pIC50 at least 7 for `CC(C)n1cc(-c2ccc(C(F)(F)F)nc2)cc(CNC(=O)[C@@H]2CCCN2S(=O)(=O)c2cc3cc(F)ccc3o2)c1=O` ?
OUTPUT: Condition met

INPUT: In plain terms: is recorded pIC50 at least 7 for `CC(C)n1c(=O)c(CNC(=O)[C@@H]2CCCN2S(=O)(=O)c2cc3cc(F)ccc3o2)cn(-c2ccc(C(F)(F)F)nc2)c1=O` ?
OUTPUT: Condition met

INPUT: In plain terms: is recorded pIC50 at least 7 for `CC(C)n1c(=O)c(CNC(=O)[C@@H]2CC(F)(F)CN2S(=O)(=O)c2cc3cc(F)ccc3o2)cn(-c2ccc(C(F)(F)F)cc2)c1=O` ?
OUTPUT: Condition met

INPUT: In plain terms: is recorded pIC50 at least 7 for `O=C(NCc1ccc(=O)n(-c2ccc(C(F)(F)F)cc2)c1)[C@@H]1CCCN1S(=O)(=O)c1cc2cc(F)ccc2o1` ?
OUTPUT: Condition met
